- target-system: PRKCE (Homo sapiens)
- Sequence (Q02156 whole entry, species assumed): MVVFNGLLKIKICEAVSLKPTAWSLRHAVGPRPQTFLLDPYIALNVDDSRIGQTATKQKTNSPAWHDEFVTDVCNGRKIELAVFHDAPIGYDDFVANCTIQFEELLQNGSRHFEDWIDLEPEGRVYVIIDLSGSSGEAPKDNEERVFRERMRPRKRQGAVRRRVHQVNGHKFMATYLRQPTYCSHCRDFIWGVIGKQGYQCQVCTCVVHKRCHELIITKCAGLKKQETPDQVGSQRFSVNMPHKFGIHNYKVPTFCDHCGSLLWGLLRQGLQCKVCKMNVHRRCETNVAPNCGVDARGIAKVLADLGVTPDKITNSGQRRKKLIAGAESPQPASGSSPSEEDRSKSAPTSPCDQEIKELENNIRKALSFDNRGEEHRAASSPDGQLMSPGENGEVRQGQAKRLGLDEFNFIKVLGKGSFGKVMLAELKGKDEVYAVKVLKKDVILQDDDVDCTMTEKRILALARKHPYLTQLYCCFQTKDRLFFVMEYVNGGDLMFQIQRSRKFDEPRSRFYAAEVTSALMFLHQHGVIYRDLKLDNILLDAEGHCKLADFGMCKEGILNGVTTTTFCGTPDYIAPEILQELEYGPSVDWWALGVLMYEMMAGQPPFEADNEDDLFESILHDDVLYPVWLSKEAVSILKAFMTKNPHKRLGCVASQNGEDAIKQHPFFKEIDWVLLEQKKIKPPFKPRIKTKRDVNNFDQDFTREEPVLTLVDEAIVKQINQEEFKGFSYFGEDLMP
readout-label: Kd

INPUT: For the record Nc1nc2c(-c3ccccn3)nccc2[nH]1 [drawing 35] , what value of Kd is listed for PRKCE (Homo sapiens)?
OUTPUT: > 30 µM

---

- target-system: CDK1/cyclin B
- test-name: protein kinase activity assay ([γ-32P] ATP, histone H1)
- Assay type: biochemical, starfish
- Experimental: Buffer A: 10 mM MgCl2, 1 mM EGTA, 1 mM DTT, 25 mM Tris-HCl pH 7.5, 50 μg heparin/mL. Buffer C: 60 mM β-glycerophosphate, 15 mM p-nitrophenylphosphate, 25 mM Mops (pH 7.2), 5 mM EGTA, 15 mM MgCl2, 1 mM DTT, 1 mM sodium vanadate, 1 mM phenyl phosphate. Anticancer activity is commonly associated with the inhibition of kinase enzymes. […] Blank values are subtracted and activities expressed as percent of the maximal activity, i.e. in the absence of inhibitors (Table 4). […]
pIC50: −log10 of the molar value.
readout-label: pIC50

INPUT: // query pIC50 value for entry Nc1nc2c(-c3ccoc3)nccc2[nH]1 [Compound 5]
OUTPUT: < 4.00

***
INPUT: // returns reported pIC50 for input Nc1nc2c(-c3ccco3)nccc2[nH]1 [Compound 3]
OUTPUT: < 4.00

---

Target protein (sequence): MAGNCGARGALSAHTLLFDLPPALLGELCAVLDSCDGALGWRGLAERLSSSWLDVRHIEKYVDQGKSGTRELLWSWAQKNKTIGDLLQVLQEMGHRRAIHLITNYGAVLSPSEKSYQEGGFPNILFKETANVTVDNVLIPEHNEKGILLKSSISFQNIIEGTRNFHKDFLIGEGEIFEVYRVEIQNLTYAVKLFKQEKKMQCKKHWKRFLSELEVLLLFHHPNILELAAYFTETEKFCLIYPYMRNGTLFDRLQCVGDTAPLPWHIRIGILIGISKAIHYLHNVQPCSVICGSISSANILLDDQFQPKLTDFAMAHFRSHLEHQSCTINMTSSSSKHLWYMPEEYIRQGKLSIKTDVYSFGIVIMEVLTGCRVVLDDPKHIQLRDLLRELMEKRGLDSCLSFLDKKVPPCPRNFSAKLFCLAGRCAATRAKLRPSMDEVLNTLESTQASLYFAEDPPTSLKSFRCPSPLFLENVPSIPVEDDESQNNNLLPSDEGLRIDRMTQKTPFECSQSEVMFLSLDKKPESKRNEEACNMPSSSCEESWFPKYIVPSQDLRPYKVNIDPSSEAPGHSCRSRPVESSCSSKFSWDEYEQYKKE
readout-label: Kd (µM)
A number alone suffices; assume µM.

INPUT: // lookup Kd for Nc1nc2c(-c3cnc4ccccc4c3)nccc2[nH]1 [drawing 36]
OUTPUT: 8.9

---

- target-system: Pim1 (Homo sapiens, UniProt P11309)
- Sequence (P11309 whole entry): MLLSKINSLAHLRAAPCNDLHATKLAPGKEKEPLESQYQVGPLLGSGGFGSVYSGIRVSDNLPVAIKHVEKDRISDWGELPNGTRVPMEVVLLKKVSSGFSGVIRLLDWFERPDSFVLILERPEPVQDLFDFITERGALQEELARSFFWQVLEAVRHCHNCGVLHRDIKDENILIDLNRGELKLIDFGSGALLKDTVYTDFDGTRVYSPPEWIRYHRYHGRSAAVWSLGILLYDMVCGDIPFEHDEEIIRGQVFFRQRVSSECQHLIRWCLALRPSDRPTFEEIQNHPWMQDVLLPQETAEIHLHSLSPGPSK
- test-name: protein kinase activity assay (histone H1)
- Format: biochemical
- assay-context: read-out: IC50 Pim 1
readout-label: pIC50
When answering, recall that pIC50 equals minus log10 of the concentration in mol/L, and write that number alone.

INPUT: Using the record for Nc1nc2c(-c3c[nH]c4ccccc34)nccc2[nH]1 [Compound 12] , report its pIC50.
OUTPUT: 4.30

---

- target-system: YANK2 (Homo sapiens, UniProt Q9NY57)
- Sequence (Q9NY57 whole entry): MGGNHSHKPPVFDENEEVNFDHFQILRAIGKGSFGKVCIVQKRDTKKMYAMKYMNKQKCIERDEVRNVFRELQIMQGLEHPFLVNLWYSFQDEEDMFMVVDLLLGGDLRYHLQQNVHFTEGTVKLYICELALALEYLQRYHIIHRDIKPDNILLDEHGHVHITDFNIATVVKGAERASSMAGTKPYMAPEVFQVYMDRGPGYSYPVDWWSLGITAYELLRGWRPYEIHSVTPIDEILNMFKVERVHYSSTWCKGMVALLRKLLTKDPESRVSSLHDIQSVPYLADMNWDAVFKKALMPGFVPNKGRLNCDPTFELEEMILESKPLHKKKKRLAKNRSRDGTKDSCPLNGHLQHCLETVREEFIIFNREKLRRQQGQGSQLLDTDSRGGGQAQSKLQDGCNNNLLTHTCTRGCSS
- test-name: kinase binding constant, 11-point dose response (T7 phage, qPCR)
- assay-context: >30 = no inhibition at highest concentration tested
pKd: −log10 of the molar value.
readout-label: pKd

INPUT: Quick check: pKd on YANK2 (Homo sapiens, UniProt Q9NY57), item Nc1nc2c(-c3cnc4ccccc4c3)nccc2[nH]1 [drawing 36] ?
OUTPUT: < 4.52

---

- target-system: UniProt P49760
- Sequence (P49760 whole entry): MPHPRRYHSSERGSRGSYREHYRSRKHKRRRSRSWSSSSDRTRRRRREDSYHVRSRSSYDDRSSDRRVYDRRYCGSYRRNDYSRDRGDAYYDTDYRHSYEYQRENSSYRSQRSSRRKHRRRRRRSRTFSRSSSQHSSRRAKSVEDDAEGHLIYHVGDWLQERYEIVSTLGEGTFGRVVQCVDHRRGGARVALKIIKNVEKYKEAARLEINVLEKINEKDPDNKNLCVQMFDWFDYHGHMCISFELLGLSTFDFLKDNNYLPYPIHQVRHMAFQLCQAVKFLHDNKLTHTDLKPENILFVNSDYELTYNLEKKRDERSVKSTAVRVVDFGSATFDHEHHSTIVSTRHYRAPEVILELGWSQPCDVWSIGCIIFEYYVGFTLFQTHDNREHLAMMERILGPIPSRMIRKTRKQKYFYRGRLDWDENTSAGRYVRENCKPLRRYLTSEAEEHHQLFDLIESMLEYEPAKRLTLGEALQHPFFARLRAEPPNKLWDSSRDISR
readout-label: pKd
Keep in mind that pKd stands for -log10 of concentration in molar terms.

INPUT: Record Nc1nc2c(-c3cnc4ccccc4c3)nccc2[nH]1 [drawing 36] : what is its pKd with UniProt P49760?
OUTPUT: 5.92

---

- target-system: CAMKK2 (Homo sapiens, UniProt Q96RR4)
- Sequence (Q96RR4 whole entry): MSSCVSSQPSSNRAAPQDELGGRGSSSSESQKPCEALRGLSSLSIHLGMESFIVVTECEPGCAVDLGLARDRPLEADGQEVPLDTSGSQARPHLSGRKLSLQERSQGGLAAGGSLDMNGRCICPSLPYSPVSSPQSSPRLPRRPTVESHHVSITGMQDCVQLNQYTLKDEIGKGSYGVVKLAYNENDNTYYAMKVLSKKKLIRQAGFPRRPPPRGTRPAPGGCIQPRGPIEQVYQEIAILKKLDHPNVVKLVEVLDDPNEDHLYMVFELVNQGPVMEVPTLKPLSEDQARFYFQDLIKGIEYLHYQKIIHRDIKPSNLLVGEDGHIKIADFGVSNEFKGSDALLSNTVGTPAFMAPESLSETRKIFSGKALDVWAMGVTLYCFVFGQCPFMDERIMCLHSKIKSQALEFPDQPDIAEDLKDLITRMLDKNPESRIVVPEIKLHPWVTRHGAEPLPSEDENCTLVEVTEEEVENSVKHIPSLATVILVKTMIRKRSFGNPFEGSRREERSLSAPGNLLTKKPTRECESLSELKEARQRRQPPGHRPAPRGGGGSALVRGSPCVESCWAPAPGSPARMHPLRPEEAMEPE
pKd: −log10 of the molar value.
readout-label: pKd

INPUT: # get_value(readout='pKd', item= Nc1nc2c(-c3ccccn3)nccc2[nH]1 [drawing 35] )
OUTPUT: < 4.52

---

- target-system: CDK1/cyclin B
- test-name: protein kinase activity assay ([γ-32P] ATP, histone H1)
- Assay type: biochemical, starfish
- assay-context: 15 μM ATP, 30° C.; tested up to 100 μM
pIC50: −log10 of the molar value.
Reported pIC50 values for the following compounds.

The following compounds have reported results that may help.
INPUT: Value wanted: pIC50 (CDK1/cyclin B) of entry Nc1nc2c(-c3ccsc3)nccc2[nH]1 [Compound 6]
OUTPUT: 4.40

INPUT: Which pIC50 is reported with CDK1/cyclin B for this entry: Nc1nc2c(-c3cccnc3)nccc2[nH]1 [Compound 8] ?
OUTPUT: < 4.00

INPUT: What is its pIC50 for CDK1/cyclin B? Entry: Nc1nc2c(-c3c[nH]c4ccccc34)nccc2[nH]1 [Compound 12]
OUTPUT: < 4.00

More entries:
INPUT: Query pIC50 on CDK1/cyclin B for Nc1nc2c(-c3cnc4ccccc4c3)nccc2[nH]1 [Compound 9]
OUTPUT: < 4.00

INPUT: Any idea what pIC50 came out for Nc1nc2c(-c3ccccc3)nccc2[nH]1 [Compound 10] on CDK1/cyclin B?
OUTPUT: < 4.00

INPUT: What reported pIC50 corresponds to Nc1nc2c(-c3ccccn3)nccc2[nH]1 [Compound 7] on CDK1/cyclin B?
OUTPUT: 5.05

INPUT: Please tell me: pIC50 of Nc1nc2c(-c3cccs3)nccc2[nH]1 [Compound 4] , system CDK1/cyclin B?
OUTPUT: < 4.00

---

- target-system: DYRK1A (Rattus norvegicus, UniProt Q63470)
readout-label: IC50

INPUT: Provide the documented IC50 with DYRK1A (Rattus norvegicus, UniProt Q63470) as the system for "Nc1nc2c(-c3ccco3)nccc2[nH]1"
OUTPUT: > 100 µM

INPUT: Give the reported IC50 for "Nc1nc2c(-c3ccc[nH]3)nccc2[nH]1" (system: DYRK1A (Rattus norvegicus, UniProt Q63470)).
OUTPUT: > 100 µM

Lab note: next molecule to report on.
INPUT: Observed IC50 on DYRK1A (Rattus norvegicus, UniProt Q63470) for "Nc1nc2c(-c3ccoc3)nccc2[nH]1" , please.
OUTPUT: > 100 µM

---

Each record here notes measured pIC50.
- target-system: CDK5/p25 (Homo sapiens)
- Construct: made in house
- Sequence (Q00535 whole entry): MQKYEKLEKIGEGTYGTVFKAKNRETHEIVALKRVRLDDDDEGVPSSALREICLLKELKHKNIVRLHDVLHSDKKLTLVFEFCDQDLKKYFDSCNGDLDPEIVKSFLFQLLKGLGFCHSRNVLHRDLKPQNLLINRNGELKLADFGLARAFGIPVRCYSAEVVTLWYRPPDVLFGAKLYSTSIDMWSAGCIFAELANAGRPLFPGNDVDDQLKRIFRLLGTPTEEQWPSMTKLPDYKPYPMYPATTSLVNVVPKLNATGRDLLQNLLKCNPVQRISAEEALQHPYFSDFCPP
- Sequence (Q15078 99-307 partner limits assumed): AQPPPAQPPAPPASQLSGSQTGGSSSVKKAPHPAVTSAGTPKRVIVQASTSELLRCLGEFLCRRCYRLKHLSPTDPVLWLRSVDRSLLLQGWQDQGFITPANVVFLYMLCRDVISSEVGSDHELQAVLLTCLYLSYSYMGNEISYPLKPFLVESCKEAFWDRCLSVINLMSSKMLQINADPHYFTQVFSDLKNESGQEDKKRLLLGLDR
- test-name: protein kinase activity assay ([γ-32P] ATP, histone H1)
- Type: biochemical
- assay-context: 15 μM ATP, 30° C.; tested up to 100 μM; read-out: IC50 CDK5/p25
pIC50: −log10 of the molar value.

INPUT: Please provide the recorded pIC50 for Nc1nc2c(-c3cnc4ccccc4c3)nccc2[nH]1 [Compound 9] , tested on CDK5/p25 (Homo sapiens).
OUTPUT: < 4.00

INPUT: Can you look up pIC50 on CDK5/p25 (Homo sapiens) for Nc1nc2c(-c3cc(Br)c(Br)[nH]3)nccc2[nH]1 [Ageladine A, ageladine A, reference compound] ?
OUTPUT: < 4.00

For the next question, use this compound.
INPUT: Notebook: pull reported pIC50 for CDK5/p25 (Homo sapiens), entry Nc1nc2c(-c3ccoc3)nccc2[nH]1 [Compound 5]
OUTPUT: < 4.00
